Experiment: Phase 1 study: venous plasma pharmacokinetics
Format: in vivo, human
Conditions: human, venous plasma, iv, 2 mg/kg, IV 2 mg/Kg, Cohort 5, n=6; read-out: Elim. t1/2, mean (CV %) (converted)
EXPERIMENTAL_READOUT: half-life

Task: Give the measured half-life for O=C(NCC1CCCCN1)c1cc(OCC(F)(F)F)ccc1OCC(F)(F)F (stereo not shown) [flecainide, flecainide acetate]
Result: 10 h

====

Assay: Phase 1 study: venous plasma pharmacokinetics
Format: in vivo, human
Conditions: both sexes, human, venous plasma, inhaled or intranasal; Inhaled 60 mg, n=7 (post-hoc); read-out: AUCLast, mean (CV %)
Experimental: In this study, for inhalation delivery of flecainide, the estimated total lung doses (eTLDs) were calculated to account for losses of flecainide in the inhalation device and losses of flecainide in subjects' mouth and throat. eTLD was thereby used to denote the dose that actually reached the lungs of the subjects. […]
EXPERIMENTAL_READOUT: AUC(0-t)

Task: Give the measured AUC(0-t) for O=C(NCC1CCCCN1)c1cc(OCC(F)(F)F)ccc1OCC(F)(F)F (stereo not shown) [flecainide, flecainide acetate]
Result: 946 ng·h/mL

====

Experiment: Phase 1 study: venous plasma pharmacokinetics
Type: in vivo, human
Conditions: human, venous plasma, iv, 2 mg/kg, IV 2 mg/Kg, Cohort 5, n=6; read-out: Cmax, mean (CV %)
EXPERIMENTAL_READOUT: Cmax (ng/mL)
Write the answer as a number in ng/mL, unit excluded.

Task: Give the measured Cmax for O=C(NCC1CCCCN1)c1cc(OCC(F)(F)F)ccc1OCC(F)(F)F (stereo not shown) [flecainide, flecainide acetate]
Result: 749

====

Test: Phase 1 study: venous plasma pharmacokinetics
Format: in vivo, human
Settings: human, venous plasma, inhaled or intranasal; Inhaled 30 mg, Cohort 5, n=6; read-out: AUClast, mean (CV %)
EXPERIMENTAL_READOUT: AUC(0-t) (ng·h/mL)
Write the answer as a number in ng·h/mL, unit excluded.

Task: Give the measured AUC(0-t) for O=C(NCC1CCCCN1)c1cc(OCC(F)(F)F)ccc1OCC(F)(F)F (stereo not shown) [flecainide, flecainide acetate]
Result: 487

====

Experiment: Phase 1 study: venous plasma pharmacokinetics
Format: in vivo, human
Settings: both sexes, human, venous plasma, inhaled or intranasal, 60 mg, two subjects each of 40 and 60 mg eTLD cohorts, after the end of inhalation; read-out: Tmax of the four subjects excluded post hoc
EXPERIMENTAL_READOUT: Tmax

Task: Give the measured Tmax for O=C(NCC1CCCCN1)c1cc(OCC(F)(F)F)ccc1OCC(F)(F)F (stereo not shown) [flecainide, flecainide acetate]
Result: 0.333 to 4 h

====

Assay: Phase 1 study: venous plasma pharmacokinetics
Assay type: in vivo, human
Details: human, venous plasma, inhaled or intranasal, 30 mg, Inhaled 30 mg, Cohort 5, n=6; read-out: Cmax, mean (CV %)
EXPERIMENTAL_READOUT: Cmax (ng/mL)
Write the answer as a number in ng/mL, unit excluded.

Task: Give the measured Cmax for O=C(NCC1CCCCN1)c1cc(OCC(F)(F)F)ccc1OCC(F)(F)F (stereo not shown) [flecainide, flecainide acetate]
Result: 120

====

Assay: Phase 1 study: venous plasma pharmacokinetics
Format: in vivo, human
Settings: both sexes, human, venous plasma, inhaled or intranasal; Inhaled 40 mg, n=8 (post-hoc); read-out: AUCLast, mean (CV %)
EXPERIMENTAL_READOUT: AUC(0-t) (ng·h/mL)
Write the answer as a number in ng·h/mL, unit excluded.

Task: Give the measured AUC(0-t) for O=C(NCC1CCCCN1)c1cc(OCC(F)(F)F)ccc1OCC(F)(F)F (stereo not shown) [flecainide, flecainide acetate]
Result: 685

====

Assay: Phase 1 study: venous plasma pharmacokinetics
Type: in vivo, human
Settings: both sexes, human, venous plasma, inhaled or intranasal; Inhaled 20 mg, n=6; read-out: AUCLast, mean (CV %)
EXPERIMENTAL_READOUT: AUC(0-t) (ng·h/mL)
Write the answer as a number in ng·h/mL, unit excluded.

Task: Give the measured AUC(0-t) for O=C(NCC1CCCCN1)c1cc(OCC(F)(F)F)ccc1OCC(F)(F)F (stereo not shown) [flecainide, flecainide acetate]
Result: 421

====

Test: Phase 1 study: venous plasma pharmacokinetics
Format: in vivo, human
Settings: both sexes, human, venous plasma, inhaled or intranasal, 40 mg, Inhaled 40 mg, n=8 (post-hoc); read-out: Tmax, median (min, max) (converted)
EXPERIMENTAL_READOUT: Tmax
# include the unit after the value

Task: Give the measured Tmax for O=C(NCC1CCCCN1)c1cc(OCC(F)(F)F)ccc1OCC(F)(F)F (stereo not shown) [flecainide, flecainide acetate]
Result: 1 min

====

Assay: Phase 1 study: venous plasma pharmacokinetics
Assay type: in vivo, human
Conditions: human, venous plasma; IV 2 mg/Kg, Cohort 5, n=6; read-out: AUClast, mean (CV %)
EXPERIMENTAL_READOUT: AUC(0-t) (ng·h/mL)
Write the answer as a number in ng·h/mL, unit excluded.

Task: Give the measured AUC(0-t) for O=C(NCC1CCCCN1)c1cc(OCC(F)(F)F)ccc1OCC(F)(F)F (stereo not shown) [flecainide, flecainide acetate]
Result: 3050

====

Test: Phase 1 study: venous plasma pharmacokinetics
Type: in vivo, human
Settings: both sexes, human, venous plasma, inhaled, 60 mg, 60 mg eTLD cohort; read-out: Cmax of the two excluded subjects
EXPERIMENTAL_READOUT: Cmax (ng/mL)
Write the answer as a number in ng/mL, unit excluded.

Task: Give the measured Cmax for O=C(NCC1CCCCN1)c1cc(OCC(F)(F)F)ccc1OCC(F)(F)F (stereo not shown) [flecainide, flecainide acetate]
Result: 82.3

====

Assay: Phase 1 study: venous plasma pharmacokinetics
Assay type: in vivo, human
Conditions: both sexes, human, venous plasma, inhaled or intranasal, 60 mg, Inhaled 60 mg, n=7 (post-hoc); read-out: Cmax, mean (CV %)
EXPERIMENTAL_READOUT: Cmax (ng/mL)
Write the answer as a number in ng/mL, unit excluded.

Task: Give the measured Cmax for O=C(NCC1CCCCN1)c1cc(OCC(F)(F)F)ccc1OCC(F)(F)F (stereo not shown) [flecainide, flecainide acetate]
Result: 232

====

Test: Phase 1 study: venous plasma pharmacokinetics
Format: in vivo, human
Details: both sexes, human, venous plasma, inhaled or intranasal, 20 mg, Inhaled 20 mg, n=6; read-out: Cmax, arithmetic mean (CV %)
EXPERIMENTAL_READOUT: Cmax

Task: Give the measured Cmax for O=C(NCC1CCCCN1)c1cc(OCC(F)(F)F)ccc1OCC(F)(F)F (stereo not shown) [flecainide, flecainide acetate]
Result: 95.1 ng/mL

====

Test: Phase 1 study: venous plasma pharmacokinetics
Format: in vivo, human
Conditions: both sexes, human, venous plasma, inhaled, 40 mg, 40 mg eTLD cohort; read-out: Cmax of the two excluded subjects
EXPERIMENTAL_READOUT: Cmax (ng/mL)
Write the answer as a number in ng/mL, unit excluded.

Task: Give the measured Cmax for O=C(NCC1CCCCN1)c1cc(OCC(F)(F)F)ccc1OCC(F)(F)F (stereo not shown) [flecainide, flecainide acetate]
Result: 70.9

====

Assay: in vivo
Settings: male, Yorkshire, pig, iv, 2 mg/kg, Venous plasma level
EXPERIMENTAL_READOUT: concentration at 30 min (ng/mL)
Write the answer as a number in ng/mL, unit excluded.

Task: Give the measured concentration at 30 min for O=C(NCC1CCCCN1)c1cc(OCC(F)(F)F)ccc1OCC(F)(F)F (stereo not shown) [flecainide, flecainide acetate]
Result: 519

====

Test: in vivo
Details: male, Yorkshire, pig, iv, 2 mg/kg, LV plasma level
EXPERIMENTAL_READOUT: concentration at 30 min (µg/mL)
Write the answer as a number in µg/mL, unit excluded.

Task: Give the measured concentration at 30 min for O=C(NCC1CCCCN1)c1cc(OCC(F)(F)F)ccc1OCC(F)(F)F (stereo not shown) [flecainide, flecainide acetate]
Result: 0.497

====

Experiment: Phase 1 study: venous plasma pharmacokinetics
Assay type: in vivo, human
Details: both sexes, human, venous plasma, inhaled or intranasal, 60 mg, Inhaled 60 mg, n=7 (post-hoc); read-out: Tmax, median (min, max) (converted)
EXPERIMENTAL_READOUT: Tmax
# include the unit after the value

Task: Give the measured Tmax for O=C(NCC1CCCCN1)c1cc(OCC(F)(F)F)ccc1OCC(F)(F)F (stereo not shown) [flecainide, flecainide acetate]
Result: 1 min

====

Assay: Phase 1 study: venous plasma pharmacokinetics
Type: in vivo, human
Conditions: human, venous plasma, inhaled or intranasal, 30 mg, Inhaled 30 mg, Cohort 5, n=6; read-out: Elim. t1/2, mean (CV %) (converted)
Experimental: In this study, for inhalation delivery of flecainide, the estimated total lung doses (eTLDs) were calculated to account for losses of flecainide in the inhalation device and losses of flecainide in subjects' mouth and throat. eTLD was thereby used to denote the dose that actually reached the lungs of the subjects. […]
EXPERIMENTAL_READOUT: half-life (h)
Write the answer as a number in h, unit excluded.

Task: Give the measured half-life for O=C(NCC1CCCCN1)c1cc(OCC(F)(F)F)ccc1OCC(F)(F)F (stereo not shown) [flecainide, flecainide acetate]
Result: 10.1
